Biological target: human estrogen receptor β (Homo sapiens, UniProt Q92731)
Construct: made in house; host or cells: Baculovirus/SF-9
Sequence (Q92731 whole entry): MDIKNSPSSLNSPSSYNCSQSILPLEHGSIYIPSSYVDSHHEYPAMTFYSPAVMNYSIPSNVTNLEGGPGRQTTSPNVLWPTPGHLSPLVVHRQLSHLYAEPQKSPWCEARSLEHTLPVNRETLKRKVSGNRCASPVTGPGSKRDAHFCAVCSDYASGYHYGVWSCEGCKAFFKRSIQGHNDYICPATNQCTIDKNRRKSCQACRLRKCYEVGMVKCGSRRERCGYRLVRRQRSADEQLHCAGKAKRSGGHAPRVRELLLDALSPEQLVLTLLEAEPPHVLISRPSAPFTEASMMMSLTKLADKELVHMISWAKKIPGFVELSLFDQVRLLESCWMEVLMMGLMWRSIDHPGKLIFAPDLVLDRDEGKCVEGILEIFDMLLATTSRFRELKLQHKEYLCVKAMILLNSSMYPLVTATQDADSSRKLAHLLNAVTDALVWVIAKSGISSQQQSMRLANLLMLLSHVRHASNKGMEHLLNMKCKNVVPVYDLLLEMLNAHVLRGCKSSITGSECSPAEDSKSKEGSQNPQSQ
Experiment: Binding to human estrogen receptor β produced by Baculovirus/SF-9 expression system
Conditions: Table 2; human ERβ from Baculovirus/SF-9, estradiol = 100
reported_property: hERβ RBA

input_smiles=O=C(c1ccc(OCCN2CCCCC2)cc1)c1c(-c2ccc(O)cc2)sc2cc(O)ccc12 value_reported=9
input_smiles=C#C[C@@]1(O)C[C@@H]2CC[C@@H]3[C@H](CC[C@@]4(C)[C@H]3CC[C@@]4(O)C#C)[C@@]2(C)C1 value_reported=0.2
input_smiles=O=c1oc2cc(O)ccc2c2oc3cc(O)ccc3c12 value_reported=100
input_smiles=C[C@]12CC[C@H]3[C@@H](CC=C4C[C@@H](O)CC[C@@]43C)[C@@H]1CC[C@@H]2O value_reported=10

[in] I'd like to know its hERβ RBA. The compound in question is `C[C@]12CC[C@@H]3c4ccc(O)cc4CC[C@H]3[C@@]13CC[C@]2(O)[C@H](O)C3`
[out] 10

* * *

Tested on: estrogen receptor preparations of rat prostates
Assay: Competitive 3H-estradiol binding to estrogen receptor of rat prostate cytosol
Details: Table 2; estradiol = 100
Recorded Rat prost. ER (RBA) values for a group of compounds are listed next.

[in] Please give the measured Rat prost. ER (RBA) for this compound: `C[C@]12CC[C@H]3[C@@H](CC=C4C[C@@H](O)CC[C@@]43C)[C@@H]1CC[C@@H]2O`
[out] 5

[in] Same thing, different compound: `C#C[C@@]1(O)C[C@@H]2CC[C@@H]3[C@H](CC[C@@]4(C)[C@H]3CC[C@@]4(O)C#C)[C@@]2(C)C1`
[out] <0.01

[in] Thanks! And `C[C@]12CC[C@@H]3c4ccc(O)cc4CC[C@H]3[C@@]13CC[C@]2(O)[C@H](O)C3` ?
[out] 17

[in] Item: `O=c1c(-c2ccc(O)cc2)coc2cc(O)cc(O)c12`
[out] 10

[in] Same thing, different compound: `O=C(c1ccc(OCCN2CCCCC2)cc1)c1c(-c2ccc(O)cc2)sc2cc(O)ccc12`
[out] 1.5
